Taken from the supplement of paper PMC9170038.

# System: MS2 coat protein
# testMethodNotes: apparent KD of MS2 coat protein; designed switch direction (-1 OFF switch, 1 ON switch): 1; higher = weaker reporter binding
# testConditions: input ligand: microRNA oligo, concentration not stated
assayMetric: apparent KD of MS2 coat protein (nM)
Give the value, in units of nM, as a plain number.

// below: answered sequences
{"columns": ["sequenceText", "experimentalTarget", "assayMetric", "number"],
 "data": [
  ["CAUCGUUUGAUAGGAUAUCGCUAUACAUGAGGAUCACCCAUGUUUACCACGCUGGUUUUUCAUACCGAGAAGGAUUCUGAUGAG [salish99_SSNG02_r04_012] (Eterna round: R96, puzzle: Same State NG 2)", "MS2 coat protein", "apparent KD of MS2 coat protein", 38.3],
  ["AUUACUAACAUAGGAUAUCAUGCGAAAAUUGCGUGAGAAGGGUGGACGCUGUCAUUCACGGAAGACAUGAGGAUCACCCAUGUC [SameState NG1 #73] (Eterna round: R96, puzzle: Same State NG 1)", "MS2 coat protein", "apparent KD of MS2 coat protein", 70.5]
]}

Value lookup for apparent KD of MS2 coat protein; key = GCAUGAGAGAUAGGAUAUCGUGUACCUACAUGUGACAUGAGGAUCACCCAUGUGGUAAGUAUGAGCGAGAAGGAUCCGAUAUGU [salish99_SSNG2_r04_1002] (Eterna round: R96, puzzle: Same State NG 2) 44.4

Value lookup for apparent KD of MS2 coat protein; key = ACAUGAGGCGCAGGAUAUACAGUUGUAUAACAUGAGGACAUGACAUGAGGAUCACCCAUGUCCCAGUAGAAGGGCGAACAUGAG [Same State NG2 S2] (Eterna round: R96, puzzle: Same State NG 2) 102

* * *

# Test system: MS2 coat protein
# testMethodNotes: apparent KD of MS2 coat protein; higher = weaker reporter binding
# testConditions: Eterna round: R107; input ligand: arginine 13.2 mM
Overview of recorded apparent KD of MS2 coat protein for various sequences
Give the value, in units of nM, as a plain number.

// below: answered sequences
{"columns": ["sequenceText", "apparent KD of MS2 coat protein, nM"],
 "data": [
  ["GUCCUCAGCCGAAGGAGCGCUAGAAGAUGACAUGAGGAUCACCCAUGUGUGUGAUGUGGCUAGCAGGUAGGUCGCGGAGAGGAUU [Exclusion - Arginine B (Freestyle 16)]", 19.8],
  ["UGUAUGUGAUCUGAUACCAGCCUCAUAACUUGAGGAUCACCCAAGUGGAGCGGAAACGCUGGCCCUUGGCAGCAGAUCGCAUACU [TheoBS 2 #AlternativeMS2]", 205],
  ["GUUAUUAGAAAACUAAUAACAGUGGGUGAACGAGGACCGGUACGGCCGCCACUCGGACAUGAGGAUCACCCAUGUCCAUGUGAAA [AstrosExyTryA#4]", 12.1],
  ["ACGCUGAUUGAUUACAAUCAGCGAAAAGAUACCAGUGGGUAAUCCCACCCUUGGCAGCUUAAACAUGAGCAUCAGCCAUGUGGUA [TheoAS 15 #MS2Right #BothOrNeither #AlternativeMS2]", 77.9],
  ["GUAUACAUGAGGAUCACCCAUGUGCCAGAAGGAGCGCUGGAAACGGCAGGUAGGUCGCUGGUAGGUCCUCUAUCUAGACGUUCGG [#17 Exclusion - Arginine A]", 52.6],
  ["UGUACCAUGUCGGCCGCCACUCAUGAUAAACAAGAGGAUCACCCUUGUAGCGUCAAAGACGCUAUGAGGACCGGGACAUGGUACU [TryBS Zipper 2]", 29.5],
  ["CAAUGCAGGUCGGCCGCCACUACACACAUGAGGAUCACCCAUGUAGUUACUGGGUGAAGUGGCAGUAGGACCGGGACCUGCAUAA [Brourdmod02]", 143],
  ["UUAAUUAUAUAUUAUUUAAUAUUUACAGAAGGAGCGUGAUAAAACACAGGUAGGUCGCUGAAGGGAACAUGAGGAUCACCCAUGU [AstrosSSArgA#20]", 28.6]
]}

Value lookup for apparent KD of MS2 coat protein; key = GGAUAGGACAGAAGGAGCGACGUGAGGCGAAAGCCAAUCCUUCAACAUGAGGAUCACCCAUGUCAGGUAGGUCGCUGUCCUAUCG [ArgBX 5] 19.5

Value lookup for apparent KD of MS2 coat protein; key = AGAUGUAGCGGAAGGAGCGACAAGAGGAUCACCCUUGUCUCCCGUUGUGGGAGUUCCUUAGGUCAGGUAGGUCGCCGUUACGUCA [Omei Arg B SS B v4] 22.7

Value lookup for apparent KD of MS2 coat protein; key = AACGUAUACAGAAGGAGCGUGAUUUAUAUUUCUUUAACAUAUACAUGAGGAUCACCCAUGUCACAGGUAGGUCGCUGUAUUCGUA [JR_ExcArginiB_Sub023] 33.6

Value lookup for apparent KD of MS2 coat protein; key = UGGGUACAUGAGGAUCACCCAUGUACUGAAGGAGCGAGAAUUAUCUCAGGUAGGUCGCAGACAUGAGGAUCACCCAUGUAGUAGG [Exclusion Arginine A GF 12] 25.3
